- testName: A549 cell viability effects, profiling panel, calcein-AM fluorescence, 48 h, basal (AID 1162); further: test concentration not given here
- details: higher = more signal
Is z-score at least 0.2? Then satisfied. If not, not satisfied.

Q. Decide: is the reported value of z-score for CO[C@H]1COC(=O)CC=C[C@H](C)[C@@H](OC)COC(=O)[C@@H](C)COC(=O)CC=C[C@@H]1C equal to or greater than 0.2?
A. not satisfied

Q. Decide: is the reported value of z-score for COc1ccc(O[C@H]2C=C[C@@H](c3ccccc3)O[C@@H]2CON=C(C)CCN2CCc3nc(-c4ccccc4)c(-c4ccccc4)cc3C2)cc1 equal to or greater than 0.2?
A. satisfied

Q. Decide: is the reported value of z-score for CC(=O)OC[C@H]1O[C@H](CCON=C2[C@H]3CCn4c(=O)n(-c5ccccc5)c(=O)n4[C@H]3[C@H](O)[C@@H]3O[C@H]23)C=C[C@@H]1OC(C)=O equal to or greater than 0.2?
A. not satisfied

Q. Decide: is the reported value of z-score for CC(CCN1CCCCc2nc(C)c(C)cc21)=NO[C@@H](C)c1cn([C@H](CO)Cc2ccccc2)nn1 equal to or greater than 0.2?
A. satisfied

Q. Decide: is the reported value of z-score for C=CC[C@@H]1C=C[C@H](ON=C2[C@H]3CCn4c(=O)n(-c5ccccc5)c(=O)n4[C@H]3[C@H](O)[C@@H]3O[C@H]23)[C@@H](CO)O1 equal to or greater than 0.2?
A. not satisfied

Q. Decide: is the reported value of z-score for Cc1cc2c(nc1C)CCCCN2CC(C)ON=C1[C@H]2CCn3c(=O)n(-c4ccccc4)c(=O)n3[C@H]2[C@H](O)[C@@H]2O[C@H]12 (some centres undefined) equal to or greater than 0.2?
A. not satisfied

Q. Decide: is the reported value of z-score for COc1ccc(O[C@@H]2[C@H](O)CO[C@@H]2C=Cc2ccccc2)cc1 equal to or greater than 0.2?
A. not satisfied

Q. Decide: is the reported value of z-score for COc1cccc([C@H]2Oc3ccc(OC)cc3C(=NO[C@@H]3O[C@H](COC(C)=O)[C@@H](OC(C)=O)[C@H](OC(C)=O)[C@H]3OC(C)=O)[C@@H]2O)c1 equal to or greater than 0.2?
A. satisfied

Q. Decide: is the reported value of z-score for C=C(C)C(=O)OCC1CN2[C@@H](CC[C@@H](C)[C@@H]2c2ccc(Br)cc2)C(=O)O1 (some centres undefined) equal to or greater than 0.2?
A. not satisfied

Q. Decide: is the reported value of z-score for CC(C)CON=C1C[C@@H](O)[C@@H](O)[C@@H]2[C@@H]3C(=O)N(C4CCCCC4)C(=O)[C@@H]3CC[C@H]12 equal to or greater than 0.2?
A. satisfied

Q. Decide: is the reported value of z-score for COC(=O)CC=C[C@@H](C)[C@@H](C=NO[C@@H](C)c1cn([C@H](CO)Cc2ccccc2)nn1)OC equal to or greater than 0.2?
A. satisfied

Q. Decide: is the reported value of z-score for CCOC(=O)[C@H](Cc1ccccc1)NC(=O)CCC1CC(OC(=O)NCCc2ccc(F)cc2)CC2(CCCC(COC(=O)NCCOC)O2)O1 (some centres undefined) equal to or greater than 0.2?
A. not satisfied

Q. Decide: is the reported value of z-score for CCCNC(=O)OC[C@H]1O[C@H](CCON=C(C)C)C=C[C@@H]1Oc1ccc(OC)cc1 equal to or greater than 0.2?
A. not satisfied

Q. Decide: is the reported value of z-score for O=C(NN=C1C[C@@H](O)[C@@H](O)[C@@H]2[C@@H]3C(=O)N(C4CCCCC4)C(=O)[C@@H]3CC[C@@H]12)OCc1ccccc1 equal to or greater than 0.2?
A. satisfied

Q. Decide: is the reported value of z-score for COC(=O)CC=C[C@@H](C)[C@@H](C=NOC[C@@H](O)[C@H]1O[C@@H]2OC(C)(C)O[C@@H]2[C@H]1O)NS(=O)(=O)c1ccc(C)cc1 equal to or greater than 0.2?
A. not satisfied

Q. Decide: is the reported value of z-score for O=C1C[C@@H](O)[C@@H](O)[C@@H]2[C@@H]3C(=O)N(Cc4ccc5c(c4)OCO5)C(=O)[C@@H]3CC[C@H]12 equal to or greater than 0.2?
A. satisfied

Q. Decide: is the reported value of z-score for CC(C)C[C@H](NC(=O)CCC1CC(OC(=O)NCc2cccc3ccccc23)CC2(CCCC(COC(=O)NCc3ccccc3)O2)O1)C(=O)NCC(c1ccccc1)c1ccccc1 (some centres undefined) equal to or greater than 0.2?
A. not satisfied

Q. Decide: is the reported value of z-score for C#CCCCON=C1[C@H]2CCn3c(=O)n(C)c(=O)n3[C@H]2[C@H](O)[C@@H]2O[C@H]12 equal to or greater than 0.2?
A. not satisfied

Q. Decide: is the reported value of z-score for CCOC(=O)NN=C1C[C@@H](O)[C@@H](O)[C@@H]2[C@@H]3C(=O)N(c4cccc(Oc5ccccc5)c4)C(=O)[C@@H]3CC[C@@H]12 equal to or greater than 0.2?
A. not satisfied

Q. Decide: is the reported value of z-score for CCOC(=O)[C@H](CC(C)C)NC(=O)CCC1CC(OC(=O)NCCc2ccc(F)cc2)CC2(CCCC(COC(=O)NCCC(C)C)O2)O1 (some centres undefined) equal to or greater than 0.2?
A. not satisfied

Q. Decide: is the reported value of z-score for COC(=O)[C@@H]1CC[C@@H](C)[C@H](c2ccc(Br)cc2)N1 equal to or greater than 0.2?
A. satisfied

Q. Decide: is the reported value of z-score for COC(=O)CC=C[C@@H](C)[C@@H](C=NO[C@H](C)c1cn([C@@H]2COC[C@H]2O)nn1)NS(=O)(=O)c1ccc(C)cc1 equal to or greater than 0.2?
A. satisfied

Q. Decide: is the reported value of z-score for COC(=O)[C@@H]1CC[C@H](C)[C@@H](c2ccc(C)cc2)N1C(=O)c1ccc(C=NOC[C@@H](C)[C@H](OCc2ccccc2)C(C)C)cc1 equal to or greater than 0.2?
A. not satisfied

Q. Decide: is the reported value of z-score for O=C1CCCC=C1C(O)CCOC(c1ccccc1)(c1ccccc1)c1ccccc1 (centres undefined) equal to or greater than 0.2?
A. not satisfied

Q. Decide: is the reported value of z-score for COC(=O)[C@H](C)NC(=O)CCC1CC(OC(=O)NCc2ccc3c(c2)OCO3)CC2(CCCC(COC(=O)NCC(c3ccccc3)c3ccccc3)O2)O1 (some centres undefined) equal to or greater than 0.2?
A. not satisfied

Q. Decide: is the reported value of z-score for CC(C)(C)N1C(=O)[C@H]2[C@H]3[C@H](O)[C@H](O)CC(=NOCc4ccccc4)[C@H]3CC[C@H]2C1=O equal to or greater than 0.2?
A. not satisfied

Q. Decide: is the reported value of z-score for CCOC(=O)CCN1C(=O)[C@H]2[C@H]3[C@H](O)[C@H](O)CC(=NOCC(C)C)[C@H]3CC[C@H]2C1=O equal to or greater than 0.2?
A. not satisfied

Q. Decide: is the reported value of z-score for COC(=O)[C@H]1[C@@H](O)[C@@]2(O)c3ccccc3O[C@@]2(c2ccccc2)[C@@H]1c1ccccc1 equal to or greater than 0.2?
A. not satisfied

Q. Decide: is the reported value of z-score for CO[C@H]1COC(=O)[C@@H](Cc2ccccc2)NC(=O)[C@@H](C)COC(=O)CCC[C@@H]1C equal to or greater than 0.2?
A. satisfied
